system_under_test: Melanocortin receptor 3 (Homo sapiens, UniProt P41968)
Sequence (P41968 whole entry): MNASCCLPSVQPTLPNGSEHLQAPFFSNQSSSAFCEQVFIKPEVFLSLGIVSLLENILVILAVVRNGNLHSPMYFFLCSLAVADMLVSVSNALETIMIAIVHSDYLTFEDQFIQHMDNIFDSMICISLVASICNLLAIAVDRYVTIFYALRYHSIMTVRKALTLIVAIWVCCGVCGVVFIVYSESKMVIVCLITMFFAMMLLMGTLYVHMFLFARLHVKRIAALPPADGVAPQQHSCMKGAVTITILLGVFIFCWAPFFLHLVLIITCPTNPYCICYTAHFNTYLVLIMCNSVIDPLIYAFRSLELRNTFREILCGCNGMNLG
test_protocol: Displacement of [125I]NDP-MSH from human recombinant MC3 receptor expressed in Sf9 cells
pKi: −log10 of the molar value.
assay_readout: pKi

(a) NCCCN(C(=O)c1cc2cc(OCc3ccccc3)ccc2[nH]1)C1CCc2ccccc2C1 (centres undefined)
(b) NC1CCC(CC2CCC(N(C/C(Cl)=C/c3ccccc3)C(=O)c3cc4cc(OCc5ccccc5)ccc4[nH]3)CC2)CC1 (centres undefined)
(c) COc1ccc(CN(C(=O)CCCc2c(Cc3ccc(O)cc3)[nH]c3ccccc23)C2CCC(CC3CCC(N)CC3)CC2)cc1Br (centres undefined)
Asked: Please rank the 3 items above; order by pKi, the highest number leading. Write the labels, ordered according to the request.
Given back: b, c, a

(A) C/C(=C\c1ccccc1)CN(CCCN)C(=O)C(=O)c1c[nH]c2ccccc12
(B) NCCCCN(Cc1ccccc1)C(=O)CCCc1c[nH]c2ccccc12
(C) N=C(N)NCCCCN(Cc1ccc2ccccc2c1)C(=O)Cc1c[nH]c2ccccc12
Asked: List by increasing pKi. Please respond by ranking the labels in the order requested.
Given back: C, B, A
(C: 3.86, B: 4.42, A: 5.04)

(a) NC1CCCC(NC(=O)NC2CCCC(N(Cc3ccccc3)C(=O)CCCc3c(Cc4ccc(O)cc4)[nH]c4ccccc34)C2)C1 (centres undefined)
(b) CC1CC(CC2CCC(N(C/C(Cl)=C/c3ccccc3)C(=O)CCCc3c[nH]c4ccccc34)C(C)C2)CCC1N (stereo in doubt; form 2)
Asked: Looking at recorded values for pKi, does a or b come in lower? Lab log: write the label of the selected item as the result.
Given back: a
(a: 4.60, b: 4.89)

----------
system_under_test: Melanocortin receptor 4 (Homo sapiens, UniProt P32245)
Sequence (P32245 whole entry): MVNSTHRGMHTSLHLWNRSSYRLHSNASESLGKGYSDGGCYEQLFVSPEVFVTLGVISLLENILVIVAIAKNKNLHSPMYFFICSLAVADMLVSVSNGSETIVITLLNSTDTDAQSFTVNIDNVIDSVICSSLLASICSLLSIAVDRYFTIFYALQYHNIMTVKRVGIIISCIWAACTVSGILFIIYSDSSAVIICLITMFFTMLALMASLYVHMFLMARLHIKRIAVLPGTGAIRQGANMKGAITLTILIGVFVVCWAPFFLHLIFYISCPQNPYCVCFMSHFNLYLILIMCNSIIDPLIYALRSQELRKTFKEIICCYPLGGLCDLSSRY
test_protocol: Displacement of [125I]NDP-MSH from human recombinant MC4 receptor expressed in Sf9 cells
assay_readout: Ki (µM)

For orientation, consider the following solved cases.
compound: NC1CCC(CC2CCC(N(C/C(Cl)=C/c3ccccc3)C(=O)CCCc3c[nH]c4ccccc34)CC2)CC1 (stereo in doubt; form 3)
Ki (µM): 5.2
--
compound: NC1CCC(CC2CCC(N(C/C(Cl)=C/c3ccccc3)C(=O)CCCc3c[nH]c4ccccc34)CC2)CC1 (stereo in doubt; form 5)
Ki (µM): 6

(P) NCCCN1CCN(CCCN(Cc2ccccc2)C(=O)CCCc2c[nH]c3ccccc23)CC1
(Q) Cc1ccc(CN(C(=O)CCCc2c(Cc3ccc(O)cc3)[nH]c3ccccc23)C2CCC(CC3CCC(N)CC3)CC2)cc1 (centres undefined)
Asked: API: POST /compare with P and Q ; response names the item with higher Ki. Kindly give the label for the entry you pick.
Given back: P
(P: 16 µM, Q: 1.9 µM)

----------
system_under_test: Melanocortin receptor 5 (Homo sapiens, UniProt P33032)
Sequence (P33032 whole entry): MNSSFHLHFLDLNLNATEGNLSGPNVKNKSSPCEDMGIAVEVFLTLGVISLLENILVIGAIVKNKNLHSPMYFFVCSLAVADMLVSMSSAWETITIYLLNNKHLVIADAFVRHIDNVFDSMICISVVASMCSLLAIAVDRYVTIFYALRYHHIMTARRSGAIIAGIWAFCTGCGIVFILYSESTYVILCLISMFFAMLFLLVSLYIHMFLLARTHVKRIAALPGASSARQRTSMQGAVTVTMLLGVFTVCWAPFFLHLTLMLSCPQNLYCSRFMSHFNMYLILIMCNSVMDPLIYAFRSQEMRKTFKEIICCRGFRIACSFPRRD
test_protocol: Antagonist activity at MC5 receptor expressed in COS1 cells assessed as inhibition of alpha-MSH-induced cAMP accumulation at 100 uM
Assay type: functional, cell-based
cond: COS-1
Activity calls are given as the source filed them. The calls are words filed in the database; no cut-off is given here.
assay_readout: Activity

Worked set:
smiles_data: N=C(N)NCCCN(Cc1ccc2ccccc2c1)C(=O)CCc1c[nH]c2ccccc12
assay_readout: Activity
result: Active
//
smiles_data: N=C(N)NCCCCN(Cc1ccc2ccccc2c1)C(=O)CCc1c[nH]c2ccccc12
assay_readout: Activity
result: Active
//
smiles_data: NCCN(Cc1ccc2ccccc2c1)C(=O)Cc1c[nH]c2ccccc12
assay_readout: Activity
result: Active
//
smiles_data: NCCCN(Cc1ccc2ccccc2c1)C(=O)Cc1c[nH]c2ccccc12
assay_readout: Activity
result: Active
//
smiles_data: NCCCCCN(C/C=C/c1ccccc1)C(=O)CCc1c[nH]c2ccccc12
assay_readout: Activity
result: Active

Asked: Note down Activity recorded for "NCCCCN(Cc1ccc2ccccc2c1)C(=O)Cc1c[nH]c2ccccc12"
Given back: Active

Asked: Hello, please tell me recorded Activity for this one: "NCCCCCN(Cc1ccc2ccccc2c1)C(=O)CCCc1c[nH]c2ccccc12"
Given back: Active

----------
system_under_test: Melanocyte-stimulating hormone receptor (Mus musculus)
Sequence (Q01727 whole entry): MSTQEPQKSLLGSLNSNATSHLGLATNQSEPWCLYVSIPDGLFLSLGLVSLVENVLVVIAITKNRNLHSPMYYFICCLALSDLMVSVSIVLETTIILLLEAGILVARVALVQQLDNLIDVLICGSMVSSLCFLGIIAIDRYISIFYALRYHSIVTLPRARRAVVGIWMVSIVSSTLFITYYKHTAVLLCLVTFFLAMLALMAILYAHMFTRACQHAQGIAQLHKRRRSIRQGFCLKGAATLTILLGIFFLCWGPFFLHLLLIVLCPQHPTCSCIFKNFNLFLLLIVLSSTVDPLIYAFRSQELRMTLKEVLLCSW
test_protocol: Displacement of [125I]NDP-MSH from MC1 receptor in mouse B16 cells
Type: cell-based
pKi: −log10 of the molar value.
assay_readout: pKi

// solved cases for pKi follow
molecule: N=C(N)NC1CCC(CC2CCC(N(C/C(Cl)=C/c3ccccc3)C(=O)CCCc3c[nH]c4ccccc34)CC2)CC1 (stereo in doubt; form 2)
pKi: 5.57
--
molecule: NCCCCN(Cc1ccc2ccccc2c1)C(=O)c1c[nH]c2ccccc12
pKi: 5.77
--
molecule: NC1CCC(CC2CCC(N(Cc3ccccc3Br)C(=O)CCCc3c[nH]c4ccccc34)CC2)CC1 (centres undefined)
pKi: 5.44
--
molecule: NCCCN(Cc1ccc2ccccc2c1)C(=O)CCCc1c[nH]c2ccccc12
pKi: 5.43
--
molecule: CC1CC(CC2CCC(N(C/C(Cl)=C/c3ccccc3)C(=O)CCCc3c[nH]c4ccccc34)C(C)C2)CCC1N (stereo in doubt; form 1)
pKi: 5.25

(P) NCCCN(Cc1ccc2ccccc2c1)C(=O)Cc1ccc2ccccc2c1
(Q) NCc1ccc(CN(C/C=C/c2ccccc2)C(=O)CCCc2c[nH]c3ccccc23)cc1
(R) NCCCCCN(CCCc1ccccc1)C(=O)CCCc1c[nH]c2ccccc12
Asked: Rank the items in ascending order with respect to pKi. Write the labels out in the order the request specifies.
Given back: R, P, Q

----------
system_under_test: Melanocortin receptor 5 (Homo sapiens)
test_protocol: Displacement of [125I]NDP-MSH from human recombinant MC5 receptor expressed in Sf9 cells
assay_readout: Ki (µM)

Solved entries:
molecule: NCCN(Cc1ccc2ccccc2c1)C(=O)c1c[nH]c2ccccc12
system_under_test: Melanocortin receptor 5 (Homo sapiens)
result_number: 27
--
molecule: CC1CC(CC2CCC(N(Cc3ccccc3)C(=O)CCCc3c[nH]c4ccccc34)C(C)C2)CCC1N (stereo in doubt; form 2)
system_under_test: Melanocortin receptor 5 (Homo sapiens)
result_number: 4.8
--
molecule: CCN(CC)c1ccc(CN(CCCCCN)C(=O)CCCc2c[nH]c3ccccc23)cc1
system_under_test: Melanocortin receptor 5 (Homo sapiens)
result_number: 34
--
molecule: NC1CCCC(NC(=O)NC2CCCC(N(Cc3ccccc3)C(=O)CCCc3c[nH]c4ccccc34)C2)C1 (stereo not drawn)
system_under_test: Melanocortin receptor 5 (Homo sapiens)
result_number: 49
--
molecule: COc1cc(Cl)c(CN(C(=O)CCCc2c[nH]c3ccccc23)C2CCC(CC3CCC(N)CC3)CC2)cc1OC (stereo in doubt; form 2)
system_under_test: Melanocortin receptor 5 (Homo sapiens)
result_number: 8.9
--
molecule: N=C(N)NCCN(Cc1ccc2ccccc2c1)C(=O)CCc1c[nH]c2ccccc12
system_under_test: Melanocortin receptor 5 (Homo sapiens)
result_number: 17

(a) COc1cc(Br)c(/C=C/CN(C(=O)CCCc2c[nH]c3ccccc23)C2CCC(CC3CCC(N)CC3)CC2)cc1OC (stereo not drawn)
(b) NCCCN(Cc1ccc2ccccc2c1)C(=O)CCCc1c[nH]c2ccccc12
(c) N=C(N)NCCCN(Cc1ccc2ccccc2c1)C(=O)CCc1c[nH]c2ccccc12
(d) COc1cc(Br)c(CN(C(=O)CCCc2c(Cc3ccc(O)cc3)[nH]c3ccccc23)[C@H]2CC[C@@H](C[C@H]3CC[C@H](N)CC3)CC2)cc1OC
(e) CSc1ccc(CN(C(=O)CCCc2c[nH]c3ccccc23)C2CCC(CC3CCC(N)CC3)CC2)cc1 (stereo not drawn)
Asked: Please give the order of these molecules when sorted by Ki, largest value leading. Give me the labels in the order the question wants.
Given back: a, e, b, c, d
(a: 266 µM, e: 85 µM, b: 23 µM, c: 13 µM, d: 9.1 µM)

(I) C/C(=C/c1ccccc1)CN(CCCCCN)C(=O)/C=C/c1c[nH]c2ccccc12
(II) NCCCN(Cc1ccccc1)C(=O)CCCc1c[nH]c2ccccc12
(III) NC1CCC(CC2CCC(N(Cc3ccccc3F)C(=O)CCCc3c[nH]c4ccccc34)CC2)CC1 (stereo not drawn)
(IV) C/C(=C\c1ccccc1)CN(CCCN)C(=O)c1c[nH]c2ccccc12
Asked: hey, can you rank those molecules up there by Ki? biggest number first please Your answer should be the labels, listed in the requested order.
Given back: II, I, III, IV

(A) C/C(=C\c1ccccc1)CN(CCCCCCN)C(=O)c1cc2cc(O)ccc2[nH]1
(B) CC(Cc1ccccc1)CN(CCCCCCN)C(=O)c1cc2cc(O)ccc2[nH]1 (stereo not drawn)
Asked: # argmax over Ki for candidates A and B Let me know the label of the one you choose.
Given back: B

----------
system_under_test: Melanocyte-stimulating hormone receptor (Mus musculus)
test_protocol: Displacement of [125I]NDP-MSH from MC1 receptor in mouse B16 cells
Assay type: cell-based
pKi: −log10 of the molar value.
assay_readout: pKi

compound: N[C@H]1CC[C@H](N(Cc2ccccc2)C(=O)CCCc2c[nH]c3ccccc23)CC1
pKi: 5.37
//
compound: NCCCCCN(Cc1ccccc1)C(=O)[C@@H](N)Cc1c[nH]c2ccccc12
pKi: 4.47

(A) CC(c1ccc2ccccc2c1)N(CCN)C(=O)Cc1c[nH]c2ccccc12 (centres undefined)
(B) N#Cc1ccc(CN(C(=O)CCCc2c(Cc3ccc(O)cc3)[nH]c3ccccc23)C2CCC(CC3CCC(N)CC3)CC2)cc1 (centres undefined)
Asked: pKi comparison. Which is larger, A or B ? Your answer should be the label attached to the chosen record.
Given back: B

(a) NCCCCCN(C/C=C\c1ccccc1)C(=O)CCCc1c[nH]c2ccccc12
(b) N=C(N)NC1CCC(CC2CCC(N(C/C(Cl)=C/c3ccccc3)C(=O)CCCc3c[nH]c4ccccc34)CC2)CC1 (stereo in doubt; form 1)
Asked: Select the item whose pKi value is smaller, choosing between a and b . State your choice using its label.
Given back: b
(b: 5.27, a: 5.52)

(A) C/C(=C\c1ccccc1)CN(CCCCCCN)C(=O)c1cc2cc(O)ccc2[nH]1
(B) NCCCCCCCCN(C/C=C/c1ccccc1)C(=O)CCc1c[nH]c2ccccc12
(C) NCCCCCN(C(=O)COc1ccc2ccccc2c1)C1CCC2(CC=CCC2)CC1 (centres undefined)
Asked: Rank entries according to their pKi, from the largest number down. Answer format: the labels, ordered as requested.
Given back: B, A, C
(B: 5.92, A: 5.43, C: 5.13)

(1) NCCCCCN(Cc1ccccc1)C(=O)CCCc1c[nH]c2ccccc12
(2) NCCCCCN(Cc1ccccc1)C(=O)[C@H](N)Cc1ccc([N+](=O)[O-])cc1
(3) CC1CC(CC2CCC(N(Cc3ccccc3)C(=O)CCCc3c[nH]c4ccccc34)C(C)C2)CCC1N (stereo in doubt; form 5)
(4) NCCCN(Cc1ccccc1)C(=O)CCCc1c[nH]c2ccccc12
Asked: Rank ascending by pKi. Sort and list the labels as requested.
Given back: 2, 4, 1, 3

(1) NCCCCCN(CCc1ccc2ccccc2c1)C(=O)Cc1c[nH]c2ccccc12
(2) NCCCCCCN(C/C(Cl)=C/c1ccccc1)C(=O)CCCc1c[nH]c2ccccc12
Asked: Field: entry with larger pKi (options 1 / 2 ). Write down the label attached to your selection.
Given back: 2

(I) Cc1ccc(CN(C(=O)CCCc2c(Cc3ccc(O)cc3)[nH]c3ccccc23)C2CCC(CC3CCC(N)CC3)CC2)cc1 (centres undefined)
(II) N[C@H]1CC[C@H](NC(=O)NC2CCCC(N(Cc3ccccc3)C(=O)CCCc3c[nH]c4ccccc34)C2)CC1 (some centres undefined)
Asked: Field: lower recorded pKi (choose I or II ) Answer with the label corresponding to your selection.
Given back: I
(I: 5.33, II: 5.57)

(A) NCCCN(C(=O)c1c[nH]c2ccccc12)C1CCc2ccccc2C1 (centres undefined)
(B) CC1CC(CC2CCC(N(Cc3ccccc3)C(=O)CCCc3c[nH]c4ccccc34)C(C)C2)CCC1N (stereo in doubt; form 3)
Asked: Just curious, which one has the larger pKi reading, A or B ? Kindly give the label for the entry you pick.
Given back: B
(B: 5.77, A: 5.32)
